All figures here come from patent US20160264674A1.

Target: T1, FLAG-tagged human APRIL (human, UniProt O75888 105-250, limits assumed)
T1 construct: also called FLAG-tagged APRIL; FLAG-APRIL; not shown: FLAG tag
T1 sequence (looked up): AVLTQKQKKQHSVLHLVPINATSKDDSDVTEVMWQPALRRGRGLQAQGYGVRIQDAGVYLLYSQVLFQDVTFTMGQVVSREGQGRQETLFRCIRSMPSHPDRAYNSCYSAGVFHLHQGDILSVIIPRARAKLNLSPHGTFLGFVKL
Assay: FLAG-APRIL ELISA after 10 min at 70 °C, antibody at 3.16 µg/ml
MEASURED_PROPERTY: % residual binding after heat treatment (room temperature = 100%)
State the answer as a number, implicitly in %.

Fill in reported % residual binding after heat treatment (room temperature = 100%) for this entry: VH14.VL15 (antibody, human IgG4 S228P, kappa, V domains shown, Humanized IgG4 (S241P, Kabat) with human kappa, from HEK293T) VH: QVQLVQSGAEVKKPGASVKVSCKASGYTFTSYVMHWVRQAPGQGLEWMGYINPYNDAPKYNEKFKGRVTMTRDTSASTAYMELSSLRSDDTAVYYCARGLGYALYYAMDYWGQGTTVTVSS VL: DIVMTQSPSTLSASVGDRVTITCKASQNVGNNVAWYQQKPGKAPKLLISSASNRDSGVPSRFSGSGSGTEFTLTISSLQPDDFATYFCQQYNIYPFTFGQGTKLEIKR
50
